Reference for the values: paper PMC3454389

Target: SMb20712-CY (Sinorhizobium meliloti, UniProt Q926E6)
Sequence (Q926E6 21-309): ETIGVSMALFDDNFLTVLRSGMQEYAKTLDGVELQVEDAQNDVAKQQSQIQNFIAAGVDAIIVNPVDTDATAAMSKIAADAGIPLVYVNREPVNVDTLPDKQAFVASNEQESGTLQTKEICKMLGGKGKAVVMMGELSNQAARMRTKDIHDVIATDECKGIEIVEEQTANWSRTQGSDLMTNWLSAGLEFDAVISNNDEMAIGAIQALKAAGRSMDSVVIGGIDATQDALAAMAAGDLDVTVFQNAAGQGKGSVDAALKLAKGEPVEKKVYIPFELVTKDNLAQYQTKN
Parameter: pKd
Remember the convention: pKd equals -log10 of concentration in molar.

What does the record list as pKd for O[C@H]1[C@H](O)[C@@H](O)[C@H](O)[C@@H](O)[C@H]1O [myo-inositol] ?
6.33
